Tested on: 293T cells
protocol.text: Cell survival rate assay (CCK-8)
Type: cell-based
condition.context: difference vs YK-413
Hi there, I'd appreciate the recorded cell survival rate higher than YK-413 for every entry that follows.
Give bare numbers, in %.

These recorded examples may help you get a feel for the data.
CCCCCCCCC(CCCCCCCC)COC(=O)CCCCCN(CCCO)CCCN(CCCO)CCCCCC(=O)OCC(CCCCCCCC)CCCCCCCC = 23.94
CCCCCCCCC(CCCCCCCC)OC(=O)CCCCCCCN(CCO)CCN(CCO)CCCCCCCC(=O)OC(CCCCCCCC)CCCCCCCC = 23.56
CCCCCCCCC(CCCCCCCC)COC(=O)CCCCCN(CCCO)CCN(CCCO)CCCCCC(=O)OCC(CCCCCCCC)CCCCCCCC = 23.28
CCCCCCCCCCCOC(=O)CCCN(CCO)CCN(CCO)CCCCCC(=O)OC(CCCCCCCC)CCCCCCCC = 24.17
CCCCCCCCC(CCCCCCCC)OC(=O)CCCCCN(CCO)CCN(CCO)CCCCCC(=O)OC(CCCCCCCC)CCCCCCCC = 28.01

Record request: cell survival rate higher than YK-413 value, item CCCCCCCCC(CCCCCCCC)C(=O)OCCCCCCN(CCO)CCN(CCO)CCCCCCOC(=O)C(CCCCCCCC)CCCCCCCC
25.50

###

protocol.text: Detection of encapsulation efficiency, drug loading concentration and total RNA concentration (RiboGreen)
Assay type: physicochemical
condition.context: difference vs ALC-0315
quantity.kind: encapsulation efficiency higher than ALC-0315 (%)
Give bare numbers, in %.

The cases that follow already have their encapsulation efficiency higher than ALC-0315 on record.
CCCCCCCCC(CCCCCCCC)OC(=O)CCCCCN(CCO)CCN(CCO)CCCCCC(=O)OC(CCCCCCCC)CCCCCCCC = 20.3
CCCCCCCCC(CCCCCCCC)COC(=O)CCCCCN(CCCO)CCCN(CCCO)CCCCCC(=O)OCC(CCCCCCCC)CCCCCCCC = 26.4
CCCCCCCCC(CCCCCCCC)OC(=O)CCCCCCCN(CCO)CCN(CCO)CCCCCCCC(=O)OC(CCCCCCCC)CCCCCCCC = 24.6
CCCCCCCCCCCOC(=O)CCCN(CCO)CCN(CCO)CCCCCC(=O)OC(CCCCCCCC)CCCCCCCC = 21.9
CCCCCCCCC(CCCCCCCC)COC(=O)CCCCCN(CCCO)CCN(CCCO)CCCCCC(=O)OCC(CCCCCCCC)CCCCCCCC = 29.1

Then this compound:
Requested read-out: encapsulation efficiency higher than ALC-0315. Entry: CCCCCCCCC(CCCCCCCC)C(=O)OCCCCCCN(CCO)CCN(CCO)CCCCCCOC(=O)C(CCCCCCCC)CCCCCCCC
27.7

###

protocol.text: Detection of encapsulation efficiency, drug loading concentration and total RNA concentration (RiboGreen)
Type: physicochemical
condition.context: difference vs SM-102
quantity.kind: encapsulation efficiency higher than SM-102 (%)
Give bare numbers, in %.

CCCCCCCCC(CCCCCCCC)COC(=O)CCCCCN(CCCO)CCCN(CCCO)CCCCCC(=O)OCC(CCCCCCCC)CCCCCCCC = 26.8
CCCCCCCCCCCOC(=O)CCCN(CCO)CCN(CCO)CCCCCC(=O)OC(CCCCCCCC)CCCCCCCC = 22.3
CCCCCCCCC(CCCCCCCC)C(=O)OCCCCCCN(CCO)CCN(CCO)CCCCCCOC(=O)C(CCCCCCCC)CCCCCCCC = 28.1
CCCCCCCCC(CCCCCCCC)OC(=O)CCCCCN(CCO)CCN(CCO)CCCCCC(=O)OC(CCCCCCCC)CCCCCCCC = 20.7
CCCCCCCCC(CCCCCCCC)OC(=O)CCCCCCCN(CCO)CCN(CCO)CCCCCCCC(=O)OC(CCCCCCCC)CCCCCCCC = 25.0

As a next step, examine the compound that follows.
Which encapsulation efficiency higher than SM-102 value is on record for CCCCCCCCC(CCCCCCCC)COC(=O)CCCCCN(CCCO)CCN(CCCO)CCCCCC(=O)OCC(CCCCCCCC)CCCCCCCC ?
29.5

Where do the numbers come from? From patent US12545637B2.
